Where do the numbers come from? From ChEMBL document CHEMBL1147531.

# assay.target: Squalene--hopene cyclase (Alicyclobacillus acidocaldarius subsp. acidocaldarius (strain ATCC27009 / DSM 446 / 104-1A) (Bacillus acidocaldarius), UniProt P33247)
# protocol.summary: Inhibitory activity against squalene hopene cyclase from Alicyclobacillus acidocaldarius expressed in Escherichia coli
metric.name: pIC50
Note: pIC50 values are expressed as the negative base-10 logarithm of concentration in M.

Worked set:
{"columns": ["compound", "metric.name", "measured.value"],
 "data": [
  ["C/C(=C\\COc1cc2oc(=O)ccc2cc1O)CC/C=C(\\C)CCC1OC1(C)C (centres undefined)", "pIC50", 4.17],
  ["C/C(=C\\COc1ccc2ccc(=O)oc2c1)CC/C=C(\\C)CCC1OC1(C)C (centres undefined)", "pIC50", 5.60],
  ["C/C(=C\\COc1ccc2ccc(=O)oc2c1)CC/C=C(\\C)CCC(O)C(C)(C)O (centres undefined)", "pIC50", 4.19]
]}

As a next step, examine the compound that follows.
Input line: Any idea what pIC50 was measured for `CC(C)=CCC/C(C)=C/CC/C(C)=C/Cc1c(O)c2ccccc2oc1=O` ?
Output line: 4.05

* * *

# assay.target: Squalene--hopene cyclase (Alicyclobacillus acidocaldarius subsp. acidocaldarius (strain ATCC27009 / DSM 446 / 104-1A) (Bacillus acidocaldarius), UniProt P33247)
# Sequence (P33247 whole entry): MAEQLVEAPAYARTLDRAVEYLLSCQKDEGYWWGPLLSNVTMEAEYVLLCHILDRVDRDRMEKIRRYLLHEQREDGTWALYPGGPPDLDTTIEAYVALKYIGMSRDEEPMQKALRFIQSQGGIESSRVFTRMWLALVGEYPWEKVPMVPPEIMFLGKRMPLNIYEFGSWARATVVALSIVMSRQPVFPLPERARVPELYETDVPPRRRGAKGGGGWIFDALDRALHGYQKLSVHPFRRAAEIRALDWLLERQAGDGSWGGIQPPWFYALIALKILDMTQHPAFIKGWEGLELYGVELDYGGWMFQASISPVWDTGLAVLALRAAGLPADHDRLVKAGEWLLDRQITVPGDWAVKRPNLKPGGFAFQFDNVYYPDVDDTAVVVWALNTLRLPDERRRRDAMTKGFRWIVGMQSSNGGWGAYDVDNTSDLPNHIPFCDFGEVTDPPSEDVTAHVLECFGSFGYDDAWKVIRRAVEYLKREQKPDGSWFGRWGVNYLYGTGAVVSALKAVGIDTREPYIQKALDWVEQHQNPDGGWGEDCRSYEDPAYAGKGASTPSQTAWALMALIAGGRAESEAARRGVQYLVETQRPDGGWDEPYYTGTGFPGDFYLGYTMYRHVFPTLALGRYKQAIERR
# protocol.summary: Inhibitory activity against squalene hopene cyclase from Alicyclobacillus acidocaldarius expressed in Escherichia coli
metric.name: IC50

{"columns": ["compound", "IC50"],
 "data": [
  ["C/C(=C\\COc1ccc2ccc(=O)oc2c1)CCC1OC1(C)CCC1OC1(C)C (centres undefined)", "1.5 µM"],
  ["CC(=O)Oc1ccc2c(OC(C)=O)c(C/C=C(\\C)CC/C=C(\\C)CCC3OC3(C)C)c(=O)oc2c1 (centres undefined)", "100 µM"],
  ["C/C(=C\\COc1ccc2ccc(=O)oc2c1)CC[C@H]1C2(C)CC[C@@H](O2)C1(C)C (single isomer, unassigned) [FARNESIFEROL C]", "7 µM"]
]}

Input line: Any idea what IC50 was measured for CC(C)=CCC/C(C)=C/CC/C(C)=C/COc1ccc2ccc(=O)oc2c1 [UMBELLIPRENIN] ?
Output line: 70 µM
